- assayedSystem: CvkR (Alr3614) (Anabaena sp. PCC 7120, UniProt A0ACD6B984 19-168)
- Sequence (A0ACD6B984 entry or part of it): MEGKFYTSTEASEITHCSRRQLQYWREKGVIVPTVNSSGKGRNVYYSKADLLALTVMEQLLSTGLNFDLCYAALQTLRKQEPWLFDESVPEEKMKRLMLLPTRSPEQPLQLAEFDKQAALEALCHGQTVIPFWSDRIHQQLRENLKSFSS
- assayProtocol: EMSA; EMSA: 10 mM Tris-HCl pH 8.0, 25 mM MgCl2, 50 mM NaCl, 1 mM DTT, 1 mM EDTA, 50 ug/mL poly(dI-dC), 0.01% NP-40, 10% glycerol, 2 nM probe, 25 C 30 min; footprinting: 50 mM Tris-HCl pH 8.0, 100 mM KCl, 2.5 mM MgCl2, 0.2 mM DTT, 10% glycerol, 2 ug salmon sperm DNA, RT
- measurementSetup: protein: recombinant; tags: 6xHis-SUMO removed by Ulp1 (BamHI site; possible vector residues at N-term); chain copies: 2; label: 5'-biotin; blunt
recordedMetric: binding result

[[record]]
binder = "Pcas12kcenter (dsDNA) DNA 1: CTAAAACACATTAGTGCTTTGTATAACATTATGTGTTTTGTAT DNA 2: ATACAAAACACATAATGTTATACAAAGCACTAATGTGTTTTAG"
assayresult = "binds"

[[record]]
binder = "PtnsBcenter (dsDNA) DNA 1: TTTAGAATAACATTATGTATTTATAAATTACCTTTGTTTCA DNA 2: TGAAACAAAGGTAATTTATAAATACATAATGTTATTCTAAA"
assayresult = "binds"

[[record]]
binder = "Pwt (dsDNA) DNA 1: TTGTATAACATTATGTGTTTTGTATGGTATTTT DNA 2: AAAATACCATACAAAACACATAATGTTATACAA"
assayresult = "binds"

